System: MDA-N
MEASUREMENT_NOTES: NCI tumour cell line growth inhibition, 48 h
The source made the active and inactive calls. Cut-off read from the data, not from the text of the source: active = GI50 up to about 1.1 µM and inactive = higher.
PARAMETER: GI50

Here's what some known entries look like.
- MOLECULE: "CC1=CC(=O)/C(=C/NC(=S)NCCc2ccccc2)C(=O)O1"
  GI50: "> 100 µM (inactive)"
- MOLECULE: "CN(C)c1ccc(/C=C(\\NC(=O)c2ccccc2)C(=O)Nc2ccccc2C(=O)NCc2ccccc2)cc1"
  GI50: "> 100 µM (inactive)"
- MOLECULE: "Cc1cc(S(=O)(=O)Nc2nc(N)nc(N3CCOCC3)n2)c(SCC(=O)O)cc1Cl"
  GI50: "> 10 µM (inactive)"
- MOLECULE: "CSc1nc(-c2ccccc2)nc(C(C#N)C#N)n1"
  GI50: "> 100 µM (inactive)"
- MOLECULE: "CC(=O)OCc1cc(CCC(=O)NCCNc2c3ccccc3nc3ccccc23)cc(COC(C)=O)c1O[Si](C)(C)C(C)(C)C"
  GI50: "5.85 µM (inactive)"

Quick one: give me GI50 for each item below, same order please.
1. CC1(C)OC2C(O)C(CO)OC2(C(F)F)O1 (stereo unspecified)
2. CN(C(=O)c1ccccc1)C1CCCC(=O)CC1 (stereo unspecified)
3. O=C(O)CN1CCNCCN(CC(=O)O)CCNCC1
4. COc1ccccc1NC(=S)N/N=C/c1ccccn1

Outgoing:
1: > 100 µM (inactive); 2: > 100 µM (inactive); 3: 10.9 µM (inactive); 4: 1.29 µM (inactive)

Could you report GI50 for every entry in the following list?
1. O=C(c1ccco1)N(C(=S)OCCOc1ccccc1)c1ccccc1
2. CCOC(=O)c1ncn(CCc2ccc(Cl)cc2)c1C

Outgoing:
1: 18.9 µM (inactive); 2: 80.5 µM (inactive)

* * *

Please respond with reported GI50 for every item in the list.
Test system: NCI-H226
MEASUREMENT_NOTES: NCI tumour cell line growth inhibition, 48 h
Calls of active or inactive are those of the source. Rule as the data show it: active = GI50 up to about 1.1 µM and inactive = higher.

- COMPOUND: "C=CCOCC1C2CCC3(OCCO3)C21 (configuration not stated)"
  STUDY_SYSTEM: "NCI-H226"
  GI50: "> 100 µM (inactive)"

Each of the following entries comes with a recorded value; kindly state GI50 for each.
1. C[C@H](CCC1=NCCN1)[C@H]1CC[C@H]2[C@@H]3CC[C@@H]4C[C@H](O)CC[C@]4(C)[C@H]3CC[C@]12C
2. COc1cc(/C=C/c2ccc(C)cc2)cc(OC)c1OC

Outgoing:
1: 7.46 µM (inactive); 2: 4.29 µM (inactive)

Would you mind giving GI50 for every compound in the list below?
1. C=C1C(=O)O[C@@H]2C[C@@H]3[C@]4(CC[C@]5(C)[C@@H]([C@H](C)CC/C=C(\C)C=O)CC[C@@]35C)C[C@]4(CCC(=O)OC)[C@H]12
2. O=C1CC2C(=O)N(Cc3ccccc3)C1C=C2S(=O)(=O)c1ccccc1 (configuration not stated)
3. O=C1C(=CNc2ccc([N+](=O)[O-])cc2)C(=O)N(c2ccccc2)C(=O)N1c1ccccc1
4. C[C@@]1(c2ccccc2)O[C@@H]2C[C@H]3[C@@H]4CCC5=CC(=O)C=C[C@]5(C)[C@@]4(F)[C@@H](O)C[C@]3(C)[C@]2(C(=O)CO)O1 [AMCINAFIDE]

Outgoing:
1: 3.4 µM (inactive); 2: > 100 µM (inactive); 3: > 100 µM (inactive); 4: 15.8 µM (inactive)

Reference for the values: ChEMBL document CHEMBL1201862
